target: human TREM2/DAP12 fusion protein (human, UniProt O43914 41-113, limits assumed); assay: cell-based or functional assay
Sequence (O43914 other isoform, or with tags, fused parts or gaps limits assumed): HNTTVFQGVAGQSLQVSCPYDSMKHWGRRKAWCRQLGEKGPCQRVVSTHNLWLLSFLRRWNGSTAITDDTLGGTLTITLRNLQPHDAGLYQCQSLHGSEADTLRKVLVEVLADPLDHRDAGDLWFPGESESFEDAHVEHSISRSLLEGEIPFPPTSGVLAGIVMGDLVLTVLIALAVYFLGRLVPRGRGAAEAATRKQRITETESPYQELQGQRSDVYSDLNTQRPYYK
measurement.label: BW Luc assay plate bound 7.3 nM IgG, FOC (FOC)
One number for each entry, in FOC.

Reference set, count: 5
[[record]]
binder = "AL2p-44 (antibody, IgG1, V domains shown, Fab and IgG formats under one id) VH: QVQLVQSGAEVKKPGSSVKVSCKASGYAFSSHWMNWVRQAPGQGLEWMGRIYPGGGDTNYARKFRGRVTITADESTSTAYMELSSLRSEDTAVYYCARLLRNQPGASYAMDYWGQGTLVTVSS VL: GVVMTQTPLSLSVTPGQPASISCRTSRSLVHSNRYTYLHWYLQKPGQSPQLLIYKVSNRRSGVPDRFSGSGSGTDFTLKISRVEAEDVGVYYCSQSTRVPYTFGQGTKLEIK"
quantitative_result = 7.17

[[record]]
binder = "AL2p-46 (antibody, V domains shown, Fab and IgG formats under one id) VH: QVQLVQSGAEVKKPGSSVKVSCKASGYAFSSDWMNWVRQAPGQGLEWMGRIYPGEGDTNYARKFQGRVTITADESTSTAYMELSSLRSEDTAVYYCARLLRNKPGESYAMDYWGQGTLVTVSS VL: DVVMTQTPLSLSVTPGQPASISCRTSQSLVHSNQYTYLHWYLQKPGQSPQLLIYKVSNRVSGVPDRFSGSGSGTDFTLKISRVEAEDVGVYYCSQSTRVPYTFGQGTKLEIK"
quantitative_result = 1.64

[[record]]
binder = "AL2p-50 (antibody, V domains shown, Fab and IgG formats under one id) VH: QVQLVQSGAEVKKPGSSVKVSCKASGYAFSSHWMNWVRQAPGQGLEWMGRIYPGEGDTNYAQKFHGRVTITADESTSTAYMELSSLRSEDTAVYYCARLLRNQPGESYAMDYWGQGTLVTVSS VL: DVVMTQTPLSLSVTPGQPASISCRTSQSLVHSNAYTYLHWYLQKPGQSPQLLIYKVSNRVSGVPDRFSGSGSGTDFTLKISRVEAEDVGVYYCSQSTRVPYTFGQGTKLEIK"
quantitative_result = 1.19

[[record]]
binder = "AL2p-51 (antibody, V domains shown, Fab and IgG formats under one id) VH: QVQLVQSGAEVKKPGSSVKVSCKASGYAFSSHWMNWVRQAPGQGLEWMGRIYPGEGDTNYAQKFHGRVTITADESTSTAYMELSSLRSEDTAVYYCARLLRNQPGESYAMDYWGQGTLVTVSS VL: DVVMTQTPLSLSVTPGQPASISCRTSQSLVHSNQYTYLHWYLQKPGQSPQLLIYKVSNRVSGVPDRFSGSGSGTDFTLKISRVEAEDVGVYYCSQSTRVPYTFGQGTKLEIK"
quantitative_result = 1.22

[[record]]
binder = "AL2p-47 (antibody, V domains shown, Fab and IgG formats under one id (explicit huIgG1 is m97); also called AL2-47) VH: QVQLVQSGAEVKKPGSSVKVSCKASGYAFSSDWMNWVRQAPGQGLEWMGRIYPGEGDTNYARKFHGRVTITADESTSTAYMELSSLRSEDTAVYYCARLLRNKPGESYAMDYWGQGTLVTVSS VL: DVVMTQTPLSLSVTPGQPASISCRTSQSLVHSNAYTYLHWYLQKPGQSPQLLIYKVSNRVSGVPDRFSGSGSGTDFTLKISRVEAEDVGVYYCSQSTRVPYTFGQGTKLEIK"
quantitative_result = 3.54


// below: BW Luc assay plate bound 7.3 nM IgG, FOC requested for another binder
Reported BW Luc assay plate bound 7.3 nM IgG, FOC for AL2p-49 (antibody, V domains shown, Fab and IgG formats under one id) VH: EVQLVQSGAEVKKPGSSVKVSCKASGYAFSSDWMNWVRQAPGQGLEWMGRIYPGEGDTNYARKFHGRVTITADESTSTAYMELSSLRSEDTAVYYCARLLRNKPGESYAMDYWGQGTLVTVSS VL: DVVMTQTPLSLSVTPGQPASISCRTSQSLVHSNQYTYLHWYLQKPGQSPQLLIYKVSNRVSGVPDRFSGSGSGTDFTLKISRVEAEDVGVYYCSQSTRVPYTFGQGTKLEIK : what is it?
3.12
